# MEASUREMENT_CONTEXT: in ethanol, 293.15 K
ASSAY_METRIC: solubility (mole fraction)
Form field (numeric): enter value without unit.

Please indicate solubility (mole fraction) recorded for CC(C)C(=O)OCC(=O)[C@@]12O[C@H](C3CCCCC3)O[C@@H]1C[C@H]1[C@@H]3CCC4=CC(=O)C=C[C@]4(C)[C@H]3[C@@H](O)C[C@@]12C
0.00674

----------
# MEASUREMENT_CONTEXT: in toluene, 308.15 K
ASSAY_METRIC: solubility (mole fraction)
# output: bare number, no unit

Note down solubility (mole fraction) recorded for CC(C)C(=O)OCC(=O)[C@@]12O[C@H](C3CCCCC3)O[C@@H]1C[C@H]1[C@@H]3CCC4=CC(=O)C=C[C@]4(C)[C@H]3[C@@H](O)C[C@@]12C
0.0654
